Source listed as ChEMBL document CHEMBL1201862.

target: Tyrosyl-DNA phosphodiesterase 2 (Homo sapiens); assay: human TDP2 enzyme inhibitors, dose response, biochemical, epi absorbance, IC50 (AID 743297)
Sequence (O95551 whole entry): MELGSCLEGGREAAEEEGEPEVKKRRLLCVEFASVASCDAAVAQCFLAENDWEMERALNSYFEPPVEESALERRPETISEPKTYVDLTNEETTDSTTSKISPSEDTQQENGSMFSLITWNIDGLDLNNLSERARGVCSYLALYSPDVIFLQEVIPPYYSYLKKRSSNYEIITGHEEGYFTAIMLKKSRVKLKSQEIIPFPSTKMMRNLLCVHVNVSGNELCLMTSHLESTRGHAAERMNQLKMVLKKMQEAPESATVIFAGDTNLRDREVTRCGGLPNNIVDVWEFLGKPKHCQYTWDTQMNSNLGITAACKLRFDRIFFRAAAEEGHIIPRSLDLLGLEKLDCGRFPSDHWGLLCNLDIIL
Calls of active or inactive are those of the source. No stated cut-off is given here; in the data, active = IC50 of 10 µM or less and inactive = more.
I would appreciate it if you answered using one of these outcomes: active, inactive

Field: outcome | Entry: COc1ccc(C(=O)Nc2nc3c(s2)Cc2cc(OC)ccc2-3)cc1 inactive

Recorded test outcome, item Cc1oc2c(c1C(=O)c1ccccc1)C(=O)C(=O)c1ccccc1-2 inactive

What was the test verdict on O=C1CCCC2=C1C1(O)C(=O)c3ccccc3C1(O)O2 (centres undefined) ? active

How did this test come out for COc1cc(NCCCNC(C)C)c2nccc(C)c2c1 ? inactive
